experiment: clinical; settings: human, in vivo, po, 960 mg
measured endpoint: AUC (ng·h/mL)
Field format: number, assumed ng·h/mL, no unit text.

Bench note: what AUC did `C=CC(=O)N1CCN(c2nc(=O)n(-c3c(C)ccnc3C(C)C)c3nc(-c4c(O)cccc4F)c(F)cc23)[C@@H](C)C1` show?
65300

---

assay: clinical; settings: human, in vivo, po, 960 mg
measured endpoint: AUC(0-t)
Remember to quote the unit after the number.

Bench note: what AUC(0-t) did C=CC(=O)N1CCN(c2nc(=O)n(-c3c(C)ccnc3C(C)C)c3nc(-c4c(O)cccc4F)c(F)cc23)[C@@H](C)C1 [Compound A] show?
140 µg·h/mL
